# System: Huh-luc/neo-ET cells
# Experiment Notes: Cell cytotoxic test (MTT) on Huh-luc/neo-ET cells
# Assay type: cell-based
# Test Context: concentration for 15% cell kill, two-day culture
Measurement Type: CC15 (µM)
Your answer should be a plain number; it is taken to be in µM.

Short answer for CC1(C)CC[C@]2(C(=O)O)CC[C@]3(C)C(=CCC4[C@@]5(C)C[C@@H](O)[C@H](OC(=O)/C=C/c6ccc(O)cc6)C(C)(C)C5CC[C@]43C)C2C1 (stereo partly drawn) : CC15 was 3.1

Short answer for C/C=C(\C)C(=O)OC1C(OC(C)=O)C2(C(=O)O)C(CC1(C)C)C1=CCC3C4(C)CCC(OC5OC(CO)C(O)C(OC6OC(CO)C(O)C(OC7OC(C)C(O)C(O)C7O)C6O)C5O)C(C)(C)C4CCC3(C)C1(C)C(OC(C)=O)C2OC(C)=O (stereo not drawn) : CC15 was 7.18

Short answer for C/C=C(/C)C(=O)OC1CC(C)(C)CC2C3=CCC4C5(C)CCC(OC6OC(C)C(OC7OC(C(=O)O)C(O)C(OC8OC(CO)C(O)C(O)C8OC8OC(CO)C(O)C(O)C8O)C7O)C(O)C6O)C(C)(C)C5CCC4(C)C3(C)C(OC(=O)/C=C/C=C/C=C/CCC)C(O)C12CO (stereo not drawn) : CC15 was 5.9

Values compiled from patent US9289443B2.
